Target: ROCK2 (human)
Readings of IC50 for the listed compounds

Observe how each entry below is paired with its result.
O=C(CNCC1CCCCC1)Nc1cc2cc[nH]c(=O)c2cc1Cl :: < 1000 nM
O=C(Cc1ccc(F)cc1)Nc1cc2cc[nH]c(=O)c2cc1Cl :: < 1000 nM
O=C(CNCc1ccccn1)Nc1cc2cc[nH]c(=O)c2cc1Cl :: < 1000 nM
O=C(CNCc1ccncc1)Nc1cc2cc[nH]c(=O)c2cc1Cl :: < 1000 nM
O=C(Nc1ccc2c(=O)[nH]cnc2c1)C(NC1CC1)c1ccccc1 (stereo unspecified) :: < 1000 nM

Next item in the queue.
Problem: Fill in the blank: the reported IC50 of `C[C@](O)(C(=O)Nc1cc2cc[nH]c(=O)c2cc1Cl)c1ccccc1` is ____.
Result: < 1000 nM

* * *

ROCK2 (human) IC50 data

Some entries whose results are on file:
O=C(Nc1cc2cc[nH]c(=O)c2cc1Cl)[C@H]1CNC[C@@H]1c1ccc(Cl)cc1 :: < 1 µM
CSCCC(=O)Nc1cc2cc[nH]c(=O)c2cc1Cl :: < 1 µM
COc1cc2c(=O)[nH]ccc2cc1NC(=O)[C@@H](N)C1CCCCC1 :: < 1 µM

As a next step, examine the molecule that follows.
Problem: What IC50 value was documented for this molecule, `CC(C)O[C@@H](C(=O)Nc1cc2cc[nH]c(=O)c2cc1Cl)c1ccccc1` ?
Result: < 1 µM
